# SI values compiled below
assay: Selectivity index by CC50 of CEM cells/EC50 of CEM cells against HIV-1; format: functional, CCRF-CEM
No unit in the answer, please; the number alone is enough.

COc1ccc2c(c1)COP(=O)(OC[C@@H]1C=C[C@H](n3cnc4c(N)ncnc43)O1)O2 (stereo in doubt; 10b (s))	125
Nc1ncnc2c1ncn2[C@H]1C=C[C@@H](CO)O1	3
Cc1cccc2c1OP(=O)(OCC1CCC(n3cnc4c(N)ncnc43)O1)OC2 (centres undefined)	585
OCC1CCC(n2cnc3ncnc(O)c32)O1 (centres undefined)	44
COc1ccc2c(c1)COP(=O)(OC[C@@H]1C=C[C@H](n3cnc4c(N)ncnc43)O1)O2 (stereo in doubt; 10b (f))	932
COc1ccc2c(c1)COP(=O)(OC[C@@H]1C=C[C@H](n3cnc4c(N)ncnc43)O1)O2 (stereo in doubt; 10b)	962
Nc1ncnc2c1ncn2C1CCC(COP2(=O)OCc3ccccc3O2)O1 (centres undefined)	3096
Cc1cccc2c1OP(=O)(OCC1CCC(n3cnc4c(O)ncnc43)O1)OC2 (centres undefined)	53
COc1ccc2c(c1)COP(=O)(OCC1CCC(n3cnc4c(N)ncnc43)O1)O2 (centres undefined)	1851
Cc1cccc2c1OP(=O)(OC[C@@H]1C=C[C@H](n3cnc4c(N)ncnc43)O1)OC2 (some centres undefined)	746

Ask: Entry Cc1cc(C)c2c(c1)COP(=O)(OCC1CCC(n3cnc4c(N)ncnc43)O1)O2 (centres undefined) has what SI?
Reply: 383

Ask: Follow-up entry: Cc1cc(C)c2c(c1)COP(=O)(OC[C@@H]1C=C[C@H](n3cnc4c(N)ncnc43)O1)O2 (some centres undefined)
Reply: 494

Ask: Okay, and OC[C@@H]1C=C[C@H](n2cnc3ncnc(O)c32)O1 ?
Reply: 20

Ask: Repeat for the following compound: Nc1ncnc2c1ncn2[C@H]1C=C[C@@H](COP2(=O)OCc3ccccc3O2)O1 (some centres undefined)
Reply: 1329
